Exercise: for every item that follows, state its recorded growth.
# Tested on: SK-OV-3 ovarian
# assay-explanation: NCI-60 one-dose screen, 48 h (100 = growth as untreated, 0 = no growth, -100 = all killed)
# test-parameters: 10 µM unless noted
About 83,000 compounds went through this panel and 20% of them were active in at least one assay; those are over-represented in the sample as a whole. The source made the active and inactive calls. Rule for the calls: active = growth percent below 10; inactive = the rest.

Solved cases below.
{"columns": ["structure-string", "measurement-target", "growth"],
 "data": [
  ["O=C(COc1cccc(/C=C2\\COc3ccc(Cl)cc3C2=O)c1)c1ccc(Cl)cc1", "SK-OV-3 ovarian", "99% (inactive)"],
  ["O=C(Oc1cccnc1)c1ccsc1Nc1ccnc(C(F)(F)F)c1", "SK-OV-3 ovarian", "88.2% (inactive)"],
  ["O=C1c2ccccc2OC=C(c2ccccc2)N1CCCCNc1ccc(S(=O)(=O)Nc2ncccn2)cc1", "SK-OV-3 ovarian", "96.6% (inactive)"],
  ["CN1CCN(c2nc(NCCCCNc3ccnc4cc(Cl)ccc34)c3ccccc3n2)CC1", "SK-OV-3 ovarian", "104% (inactive)"]
]}

// switching to the query compound
Looking for the measured growth of "c1ccc(CCNc2ncnc3[nH]ncc23)cc1" , can you help?
109% (inactive)

* * *

Exercise: for every item that follows, state its recorded growth.
# Test system: 786-0 renal
# assay-explanation: NCI-60 one-dose screen, 48 h (100 = growth as untreated, 0 = no growth, -100 = all killed)
# test-parameters: 10 µM unless noted
Compounds without any hit were thinned out: in the full panel of roughly 83,000, 20% have a hit.
One number for each entry, in %.

Solved cases below.
{"columns": ["structure-string", "growth [%]"],
 "data": [
  ["O=C(/C=C/c1cccc([N+](=O)[O-])c1)c1ccc(O)c(CN2CCN(c3cc4c(cc3F)c(=O)c(C(=O)O)cn4C3CC3)CC2)c1", -11.2],
  ["COc1cc2c(cc1-c1c(C)noc1C)ncc1nc(C3CCC(F)(F)CC3)n([C@H](C)COC(F)F)c12", 46.9],
  ["C=C(C)C(=O)Nc1ccc(NC(C)C)cc1", 96.8],
  ["CCc1c(Nc2ccccc2C)nc(N)[nH]c1=O", 109]
]}

// switching to the query compound
Looking for the measured growth of "COc1cccc(-c2nc3sccn3c2-c2ccnc(NCCCNS(=O)(=O)c3cccc(F)c3)c2)c1" , can you help?
52.6

* * *

# System: NCI-H226 lung
# assay-explanation: NCI-60 one-dose screen, 48 h
# test-parameters: 10 µM unless noted
Compounds without any hit were thinned out: in the full panel of roughly 83,000, 20% have a hit. Activity calls are given as the source filed them. How the source made its calls: active means growth percent below 10; inactive means the rest.
Tick one outcome: true (1) (active), false (0) (inactive)

A selection of reference data follows.
{"columns": ["molecule", "class"],
 "data": [
  ["O=C1c2c(O)cc(O)cc2-c2c(-c3ccc(O)cc3)oc3cc(O)cc1c23", "false (0)"],
  ["O=C(CCN1C(=O)/C(=C/c2ccc(Cl)cc2)SC1=S)NCCCN1CCOCC1", "false (0)"],
  ["COc1cc(/C=C/C(=O)Nc2cccnc2Nc2ccc(F)cc2)cc(OC)c1OC", "false (0)"],
  ["CCOC(=O)c1sc2nc(-c3cccc(O)c3)nc(N3CCOCC3)c2c1C", "false (0)"],
  ["Nc1n[nH]c2ccc([C@@H]3Nc4ccc5[nH]ncc5c4[C@H]4C5C=CC(C5)[C@@H]34)cc12 (some centres undefined)", "true (1)"]
]}

Outcome? "COc1cc2c(cc1O)CC[C@@H]1[C@@H]2CC[C@]2(C)[C@@H](NCCN(C)C)CC[C@@H]12"
true (1)
